# System: DeltatarO mutant
# TEST DETAILS: S. aureus survival, RN4220 and DeltatarO strains – OD600, teichoic acid synthesis inhibitors, primary screen (AID 463173)
# SETTINGS: S. aureus RN4220 wild type/DeltatarO growth, OD600, 18 h, hits give low values, screened at 18.75 µg/mL (by protocol)
Out of some 52,000 compounds screened, about 4,300 (8.3%) were called active. The full list was thinned out, with actives kept by preference.
Lab note: anything with survival below 60% is marked 1; values at 60% or higher are marked 0.

Use the examples below as a reference point.
{"COMPOUND": "CC(=O)Nc1ccc(-n2c(CCC(=O)O)ccc2-c2ccc(C)cc2)cc1", "TARGET OF ASSAY": "DeltatarO mutant", "CLASS LABEL": 1}
{"COMPOUND": "Cn1nnnc1SCCCNCc1ccccc1OCc1ccccc1F", "TARGET OF ASSAY": "DeltatarO mutant", "CLASS LABEL": 0}
{"COMPOUND": "COc1cccc(CNCCSc2nnnn2C)c1OCc1ccc(Cl)cc1", "TARGET OF ASSAY": "DeltatarO mutant", "CLASS LABEL": 0}
{"COMPOUND": "CC1=C(C(=O)Nc2ccc(C)cc2C)C(c2ccc([N+](=O)[O-])cc2)n2ncc(C(=O)Nc3ccc(F)cc3)c2N1 (stereo not drawn)", "TARGET OF ASSAY": "DeltatarO mutant", "CLASS LABEL": 0}

Req: Say whether its survival is strictly beneath 60%. Entry: COc1cc(CNCCSc2nnnn2C)cc(Cl)c1OCc1ccccc1
Resp: 1

Req: Given the entry O=C(O)CCc1ccc(-c2ccc(Br)cc2)n1-c1ccccc1O , would its reported survival be below 60%?
Resp: 0

Req: survival strictly < 60% for this compound? Cn1nnnc1SCCCNCc1cccc(OCc2ccc(Cl)cc2)c1
Resp: 1

Req: is_below(survival, 60%) for Cn1nnnc1SCCCNCc1ccccc1OCc1ccc(F)cc1 ?
Resp: 1

---

# System: DeltatarO mutant
# TEST DETAILS: S. aureus survival, RN4220 and DeltatarO strains – OD600, teichoic acid synthesis inhibitors, primary screen (AID 463173)
# SETTINGS: S. aureus RN4220 wild type/DeltatarO growth, OD600, 18 h, hits give low values, screened at 18.75 µg/mL (by protocol)
The campaign covered roughly 52,000 compounds. About 4,300 (8.3%) were called active. This is one part of a sample in which actives are shown more often than they occur.
For each of the compounds below, state its survival.
One number for each entry, in %.

{"LINE NOTATION": "CCc1ccccc1NC(=O)c1ccc2c(c1)N(Cc1cccc(Cl)c1)C(=O)c1ccccc1S2(=O)=O", "MEASURED METRIC": "survival", "OUTPUT UNIT": "%", "OBSERVED MEASUREMENT": 81}
{"LINE NOTATION": "Cc1ccc(C(=O)O)cc1Nc1nc2ccccc2n2nnnc12", "MEASURED METRIC": "survival", "OUTPUT UNIT": "%", "OBSERVED MEASUREMENT": 82}

For each of the items listed, what is its survival?
1. Cc1ccc(C(=O)Nc2ccccc2C(=O)OCc2cc(=O)n3nc(C(C)C)sc3n2)cc1
2. CCC(CC)C(=O)Nc1cccc(-c2nc3cccnc3s2)c1
3. Cc1ccc(Nc2nc3ccc(C)cc3nc2-n2nc(C)cc2C)c(C)c1

Resp:
1. 78
2. 80
3. 81

---

# Test system: DeltatarO mutant
# TEST DETAILS: S. aureus survival, RN4220 and DeltatarO strains – OD600, teichoic acid synthesis inhibitors, primary screen (AID 463173)
# SETTINGS: S. aureus RN4220 wild type/DeltatarO growth, OD600, 18 h, screened at 18.75 µg/mL (by protocol)
Hit rate of the full screen: of about 52,000 compounds, about 4,300 (8.3%) were called active. Cut-off read from the data, not from the text of the source: active = survival mostly below about 52% (no sharp cut-off); inactive = mostly above about 56%. For the sample, actives were picked, then their nearest neighbours and some compounds at random.
Pick from 1 for active, 0 for inactive when you respond.

Req: Name the outcome recorded for COc1ccccc1C(=O)N1c2ccccc2C(C)(c2ccc(Cl)cc2)CC1(C)C (centres undefined) in the assay.
Resp: 1

Req: Please share the test call associated with COc1cc(NC(=O)CSc2nc(-c3cccs3)cc(C(F)(F)F)n2)cc(OC)c1OC .
Resp: 0

Req: Give the logged outcome of this assay for the following compound: CCN(C(=O)Cn1ncc2c(=O)oc3ccccc3c21)c1ccccc1F
Resp: 0

Req: // return assay outcome for O=C(CC1Nc2cccc3cccc(c23)NC1=O)Nc1ccc(F)cc1 (centres undefined)
Resp: 0

---

# Test system: DeltatarO mutant
# TEST DETAILS: S. aureus survival, RN4220 and DeltatarO strains – OD600, teichoic acid synthesis inhibitors, primary screen (AID 463173)
# SETTINGS: S. aureus RN4220 wild type/DeltatarO growth, OD600, 18 h, hits give low values, screened at 18.75 µg/mL (by protocol)
Hit rate of the full screen: of about 52,000 compounds, about 4,300 (8.3%) were called active. Only a selection was taken, and actives are over-represented in it overall.
Provide the recorded survival for the entries that follow.
Numbers only, in %.

Use the examples below as a reference point.
{"COMPOUND": "CCOc1ccc(NC(=O)CSc2nc3nc(C)c(Cc4ccccc4)c(C)n3n2)cc1", "OUTPUT UNIT": "%", "survival": 89}
{"COMPOUND": "c1ccc(NCc2ccncc2)cc1", "OUTPUT UNIT": "%", "survival": 83}
{"COMPOUND": "Cc1ccc2c(CNCC(C)c3ccccc3)c(C(=O)O)n(Cc3ccccc3C)c2c1 (centres undefined)", "OUTPUT UNIT": "%", "survival": 70}
{"COMPOUND": "COc1ccc(CNC(=O)c2cc3cc4ccc(C)cc4nc3o2)cc1", "OUTPUT UNIT": "%", "survival": 74}
{"COMPOUND": "COc1ccc(NC(=O)C(Cc2ccccc2)NS(=O)(=O)c2ccc3c(c2)CCN3C(C)=O)cc1 (centres undefined)", "OUTPUT UNIT": "%", "survival": 72}
{"COMPOUND": "COc1ccc(CCNC(=O)C(=O)NCC(c2cccs2)S(=O)(=O)c2ccc(C)cc2)cc1 (centres undefined)", "OUTPUT UNIT": "%", "survival": 69}
{"COMPOUND": "Cc1ccc2oc(C(=O)Nc3ccc(S(=O)(=O)Nc4onc(C)c4C)cc3)cc(=O)c2c1", "OUTPUT UNIT": "%", "survival": 71}
{"COMPOUND": "CCc1cccc(C)c1NC(=O)Cn1nc(C)n2cccc2c1=O", "OUTPUT UNIT": "%", "survival": 92}
{"COMPOUND": "CCCn1c2ccccc2c2cnn(CC(=O)NCCc3ccc(OCC)c(OCC)c3)c(=O)c21", "OUTPUT UNIT": "%", "survival": 92}
{"COMPOUND": "COc1ccc(CNC(=O)c2ccc(Cn3c(=O)c4cccn4c4cccnc43)cc2)cc1OC", "OUTPUT UNIT": "%", "survival": 67}

For every listed record, write down its survival.
1. COc1ccc(C)cc1NC(=O)c1nnn(Cc2cccc(Br)c2)c1N
2. CCCn1c2ccccc2c2cnn(CC(=O)NCCc3ccc(C)cc3)c(=O)c21
3. CCCNC(=O)Cn1ncc2c3ccccc3n(CCC)c2c1=O
4. CCOc1cc(C(=O)Nc2cccc(-c3nc4ccccc4o3)c2)cc(OCC)c1OCC
5. COc1ccc(-c2nc(-c3cc4cc(Br)ccc4oc3=O)cs2)cc1
6. Cc1ccccc1C(=O)N1CCC(C(=O)Nc2ccc(F)cc2F)CC1

Resp:
87
128
128
51
78
67

// each compound listed below needs its survival
1. CCCn1c2ccccc2c2cnn(CC(=O)NCCc3ccc(OCC)cc3)c(=O)c21
2. CCOc1ccc(-n2nc3ccc(NC(=O)c4ccc(-c5cccc(Cl)c5)o4)cc3n2)cc1
3. O=C(NCCc1ccc(Cl)cc1)c1ccc(Cn2c(=O)c3cccn3c3cccnc32)cc1
4. Cc1ccc(C)c(N2CCN(C(=O)c3cc4cc5ccc(C)cc5nc4o3)CC2)c1
5. Cc1ccc(CN2CCN(C3CCN(S(=O)(=O)N(C)C)CC3)C(=O)C2=O)cc1

Resp:
1. -5
2. 45
3. 43
4. 90
5. 82

Lab note: each compound below needs its survival filled in.
1. CC1CCC(N2CC(=O)N(C3CCCCC3)C(c3ccc(F)cc3)C2=O)CC1 (centres undefined)
2. COc1ccc(-n2nc3ccc(NC(=O)c4ccc(-c5cc(Cl)ccc5Cl)o4)cc3n2)cc1
3. CCCn1c2ccccc2c2cnn(CC(=O)NCC3CCN(Cc4ccc(F)cc4)CC3)c(=O)c21

Resp:
1. 82
2. 40
3. 68

---

# System: DeltatarO mutant
# TEST DETAILS: S. aureus survival, RN4220 and DeltatarO strains – OD600, teichoic acid synthesis inhibitors, primary screen (AID 463173)
# SETTINGS: S. aureus RN4220 wild type/DeltatarO growth, OD600, 18 h, screened at 18.75 µg/mL (by protocol)
The whole screen tested about 52,000 compounds, of which about 4,300 (8.3%) were called active. No stated cut-off is given here; in the data, active means survival mostly below about 52% (no sharp cut-off); inactive means mostly above about 56%. Only a selection was taken, and actives are over-represented in it overall.
Can you answer with just one of these options? active, inactive

Req: Per the assay record, what outcome was assigned to Cc1nc2ccc(NC(=O)C3CCCCC3)cc2c(=O)n1Cc1ccccc1 ?
Resp: inactive

Req: What did the test return for CCCCN(CC)C(=O)c1nn(-c2ccc(OC)cc2)c(=O)c2c1c1ccccc1n2C ?
Resp: inactive

Req: Given CCN1CCN(c2ncc3c(n2)CCN(Cc2cc(F)cc(F)c2)C3)CC1 , state the outcome it received in this test.
Resp: inactive

Req: # outcome recorded in this test, key = COc1ccc(/C=C/C(=O)Nc2nc3n(n2)C(c2ccccc2)C=C(c2ccc(Cl)cc2)N3)cc1 (configuration not stated)
Resp: inactive

Req: Test call for this compound, please: Cc1ccc(CN2CCC(CNC(=O)Nc3cccc(C)c3C)C2)cc1 (configuration not stated)
Resp: inactive

Req: # fetch the recorded call for COc1ccccc1/C=C/c1nc(C#N)c(NCC(C)C)o1 here
Resp: active

Req: # lookup: test call for CC(C)(C)c1ccc(-c2ncccc2O)cc1
Resp: inactive

Req: Any idea what this test logged for COc1ccc(CCNC(=O)CCn2c(=O)c3cccn3c3cccnc32)cc1OC ?
Resp: inactive
